- Tested on: U-937
- PROCEDURE_SUMMARY: Cytotoxicity against human U937 cells after 72 hrs by sulforhodamine B assay
- Type: functional, cell-based
- APPLIED_CONDITIONS: U-937, 72 h
pIC50: −log10 of the molar value.

| SMILES | OPERATOR | pIC50 |
| --- | --- | --- |
| O=C(CN1CCN(Cc2ccccc2)CC1)N/N=C/c1ccccc1Cl | = | 4.24 |
| O=C(CN1CCN(Cc2ccccc2)CC1)N/N=C/c1ccccc1S | < | 4.00 |
| O=C(CN1CCN(Cc2ccccc2)CC1)NCCc1ccccc1O | < | 4.00 |
| O=C(CN1CCN(Cc2ccccc2)CC1)NCc1ccccc1O | < | 4.00 |
| COC(=O)c1ccccc1/C=N/NC(=O)CN1CCN(Cc2ccccc2)CC1 | < | 4.00 |
| C=CCc1cccc(/C=N/N(C)C(=O)CN2CCN(Cc3ccccc3)CC2)c1O | = | 4.66 |
| C=CCc1cccc(/C=N/NC(=O)CN2CCC(Cc3ccccc3)CC2)c1O | = | 5.57 |
| C=CCc1cccc(/C=N/NC(=O)CN2CCN(Cc3ccc(OC)cc3)CC2)c1O | = | 5.57 |
| C=CCc1cccc(/C=N/NC(=O)CN2CCN(Cc3cccc(Cn4cc(CNC(=O)Cc5c(C)c6cc(S(=O)(=O)O)c(N)cc6oc5=O)nn4)c3)CC2)c1O | = | 4.83 |
| C=CCc1cccc(/C=N/NC(=O)CC2CCN(Cc3ccccc3)CC2)c1O | = | 5.55 |
| C=CCc1cccc(/C=N/NC(=O)CN2CCN(Cc3cccc([N+](=O)[O-])c3)CC2)c1O | = | 5.34 |
| CSc1ccccc1/C=N/NC(=O)CN1CCN(Cc2ccccc2)CC1 | = | 4.21 |
| C=CCc1cccc(/C=N/NC(=O)CC2CCN(C(=O)OC(C)(C)C)CC2)c1O | = | 5.19 |
| O=C(CN1CCN(Cc2ccccc2)CC1)N/N=C/c1ccccc1SSc1ccccc1/C=N/NC(=O)CN1CCN(Cc2ccccc2)CC1 | < | 4.00 |
| Nc1ccccc1/C=N/NC(=O)CN1CCN(Cc2ccccc2)CC1 | < | 4.00 |
| C=CCc1cccc(/C=N/NC(=O)CN2CCN(Cc3ccc(F)cc3)CC2)c1O | = | 5.70 |
| O=C(CN1CCN(Cc2ccccc2)CC1)N/N=C/c1ccccc1 | < | 4.00 |
| C=CCc1cccc(/C=N/NC(=O)CN2CCN(Cc3ccccc3)CC2)c1O | = | 5.32 |
| C=CCc1cc(/C=N/NC(=O)CN2CCN(Cc3ccccc3)CC2)c(O)c(CC=C)c1 | = | 5.74 |
| COc1ccc(OC)c(CN2CCN(CC(=O)N/N=C/c3ccccc3O)CC2)c1 | = | 4.92 |
